B1: glmS ribozyme (parent)
chain: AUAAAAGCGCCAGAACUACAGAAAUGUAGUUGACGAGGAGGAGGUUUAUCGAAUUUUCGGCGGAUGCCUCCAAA

- Variants of: B1
- measurement.protocol: self-cleavage kobs at 40 uM GlcN6P; higher = faster cleavage; RNA array
- test.context: with glucosamine-6-phosphate
Variants at the floor of the assay were thinned out.
Hi there, I'd appreciate the recorded self-cleavage kobs at 40 uM GlcN6P for every entry that follows.

Incoming: So what's the measured self-cleavage kobs at 40 uM GlcN6P for this one? G7A U31A
Outgoing: < 1e-05 s⁻¹

Incoming: Here is the next variant: U47A C58U
Outgoing: < 1e-05 s⁻¹

Incoming: Here is the next variant: G35A A48C
Outgoing: < 1e-05 s⁻¹

Incoming: Here is the next variant: C19A
Outgoing: 0.00101 s⁻¹

Incoming: Here is the next variant: A42G U46A
Outgoing: 0.000149 s⁻¹

Incoming: Here is the next variant: U46C C71U
Outgoing: 0.000102 s⁻¹

Incoming: Here is the next variant: G9C G63C
Outgoing: < 1e-05 s⁻¹

Incoming: Here is the next variant: A6G C50A C70U
Outgoing: < 1e-05 s⁻¹

Incoming: Here is the next variant: A33U U49A C58U
Outgoing: < 1e-05 s⁻¹

Incoming: Here is the next variant: G29U A39G A64U
Outgoing: < 1e-05 s⁻¹

Incoming: Here is the next variant: A12C U54A
Outgoing: 0.000707 s⁻¹

Incoming: Here is the next variant: G37U A48U
Outgoing: < 1e-05 s⁻¹

Incoming: Here is the next variant: G13A U30C A42U
Outgoing: < 1e-05 s⁻¹

Incoming: Here is the next variant: G38U A48C A52C C71A
Outgoing: < 1e-05 s⁻¹

Incoming: Here is the next variant: C16A G40U A48U
Outgoing: < 1e-05 s⁻¹

Incoming: Here is the next variant: A6G U31C U55G
Outgoing: < 1e-05 s⁻¹

Incoming: Here is the next variant: U46G U54C C67U
Outgoing: 9.53e-05 s⁻¹

Incoming: Here is the next variant: A12U
Outgoing: 0.00275 s⁻¹

Incoming: Here is the next variant: G60C A64G
Outgoing: < 1e-05 s⁻¹

Incoming: Here is the next variant: G41C G43U
Outgoing: < 1e-05 s⁻¹

Incoming: Here is the next variant: C8U C10A C50G
Outgoing: 9.57e-05 s⁻¹

Incoming: Here is the next variant: A12G G32A A33U C70G
Outgoing: < 1e-05 s⁻¹

Incoming: Here is the next variant: C10U G43U C70A
Outgoing: < 1e-05 s⁻¹

Incoming: Here is the next variant: C34A
Outgoing: < 1e-05 s⁻¹

Incoming: Here is the next variant: G7U A14G
Outgoing: < 1e-05 s⁻¹

Incoming: Here is the next variant: A33C G63U C67U
Outgoing: < 1e-05 s⁻¹

Incoming: Here is the next variant: U45G U46G
Outgoing: 7.27e-05 s⁻¹

Incoming: Here is the next variant: A14U A39G
Outgoing: 0.000381 s⁻¹

Incoming: Here is the next variant: C10U G29C G35A G44U C50A U55C A64U
Outgoing: < 1e-05 s⁻¹

Incoming: Here is the next variant: G41U A42G
Outgoing: 4.79e-05 s⁻¹

Incoming: Here is the next variant: A6U C34A
Outgoing: < 1e-05 s⁻¹

Incoming: Here is the next variant: A12C A15C
Outgoing: 6.78e-05 s⁻¹

Incoming: Here is the next variant: A6C G13U A53U
Outgoing: < 1e-05 s⁻¹

Incoming: Here is the next variant: G29U A36C G38A G40A
Outgoing: < 1e-05 s⁻¹

Incoming: Here is the next variant: C8G C11G
Outgoing: < 1e-05 s⁻¹

Incoming: Here is the next variant: U30A C34U C68G
Outgoing: 0.000169 s⁻¹

Incoming: Here is the next variant: G7U A33U A52G
Outgoing: < 1e-05 s⁻¹

Incoming: Here is the next variant: U46C C70G
Outgoing: 6.28e-05 s⁻¹

Incoming: Here is the next variant: U47C G63C
Outgoing: < 1e-05 s⁻¹

Incoming: Here is the next variant: G51A U69C
Outgoing: < 1e-05 s⁻¹

Incoming: Here is the next variant: G29A A48U U54A
Outgoing: < 1e-05 s⁻¹

Incoming: Here is the next variant: A14G G40A
Outgoing: 0.000801 s⁻¹

Incoming: Here is the next variant: A14G C16U G43A C67G
Outgoing: 4.98e-05 s⁻¹

Incoming: Here is the next variant: A42G G60A U65G
Outgoing: < 1e-05 s⁻¹

Incoming: Here is the next variant: A53G C61G C70U
Outgoing: < 1e-05 s⁻¹

Incoming: Here is the next variant: C8U A14G A42C
Outgoing: < 1e-05 s⁻¹

Incoming: Here is the next variant: G7U A14U
Outgoing: < 1e-05 s⁻¹

Incoming: Here is the next variant: A15C U31C
Outgoing: 4.49e-05 s⁻¹

Incoming: Here is the next variant: C8A A15G G60A
Outgoing: < 1e-05 s⁻¹

Incoming: Here is the next variant: A6G C10U A39U
Outgoing: < 1e-05 s⁻¹

Incoming: Here is the next variant: G7A A52C
Outgoing: < 1e-05 s⁻¹

Incoming: Here is the next variant: G44U C50G
Outgoing: < 1e-05 s⁻¹

Incoming: Here is the next variant: A14G G41A C67U
Outgoing: < 1e-05 s⁻¹

Incoming: Here is the next variant: A42U U46C
Outgoing: < 1e-05 s⁻¹

Incoming: Here is the next variant: C11G U56G A64U
Outgoing: < 1e-05 s⁻¹

Incoming: Here is the next variant: C8U C10U C50A C67G
Outgoing: 6.47e-05 s⁻¹

Incoming: Here is the next variant: A12G A33G C34U A48C C71G
Outgoing: < 1e-05 s⁻¹

Incoming: Here is the next variant: U30C A39C G41U
Outgoing: < 1e-05 s⁻¹

Incoming: Here is the next variant: A12U A14U
Outgoing: 0.00011 s⁻¹

Incoming: Here is the next variant: A12U G44U U57A G59A
Outgoing: < 1e-05 s⁻¹

Incoming: Here is the next variant: U46G C71A
Outgoing: 5.65e-05 s⁻¹

Incoming: Here is the next variant: G32C G43C G51U
Outgoing: < 1e-05 s⁻¹

Incoming: Here is the next variant: A33C G62C
Outgoing: < 1e-05 s⁻¹

Incoming: Here is the next variant: G44C A52G
Outgoing: < 1e-05 s⁻¹

Incoming: Here is the next variant: G44C U49G
Outgoing: < 1e-05 s⁻¹

Incoming: Here is the next variant: G7A C8G
Outgoing: < 1e-05 s⁻¹

Incoming: Here is the next variant: G51C A52U
Outgoing: < 1e-05 s⁻¹

Incoming: Here is the next variant: C10A G13U G37U G60A U65A
Outgoing: < 1e-05 s⁻¹

Incoming: Here is the next variant: G21U U46A
Outgoing: 6.35e-05 s⁻¹

Incoming: Here is the next variant: U31C A39G
Outgoing: 0.000253 s⁻¹

Incoming: Here is the next variant: G9C A42G
Outgoing: < 1e-05 s⁻¹

Incoming: Here is the next variant: C16A U30A A33G U55C
Outgoing: < 1e-05 s⁻¹

Incoming: Here is the next variant: G13A C50G U55G U57G G62U
Outgoing: 8.98e-05 s⁻¹

Incoming: Here is the next variant: G7U A53C C58A U69G C70U
Outgoing: 7.41e-05 s⁻¹

Incoming: Here is the next variant: A48U G51U U65G C71U
Outgoing: < 1e-05 s⁻¹

Incoming: Here is the next variant: A48U G63C
Outgoing: < 1e-05 s⁻¹

Incoming: Here is the next variant: U30A A42U U55C
Outgoing: < 1e-05 s⁻¹

Incoming: Here is the next variant: G32U G43U G44U G60A
Outgoing: < 1e-05 s⁻¹

Incoming: Here is the next variant: A1U U2G A3G A5U A6C G7C C8A G9U C10A C11A
Outgoing: < 1e-05 s⁻¹

Incoming: Here is the next variant: A6C C16A G29A G63C C67A
Outgoing: < 1e-05 s⁻¹

Incoming: Here is the next variant: C58G A64U
Outgoing: < 1e-05 s⁻¹

Incoming: Here is the next variant: C11A U69G
Outgoing: 5.85e-05 s⁻¹

Incoming: Here is the next variant: C11A G51A
Outgoing: < 1e-05 s⁻¹

Incoming: Here is the next variant: G44A A52G
Outgoing: < 1e-05 s⁻¹

Incoming: Here is the next variant: A12C G32U C71A
Outgoing: < 1e-05 s⁻¹

Incoming: Here is the next variant: U55A A64U
Outgoing: < 1e-05 s⁻¹

Incoming: Here is the next variant: C50G G66U
Outgoing: 0.000495 s⁻¹

Incoming: Here is the next variant: A6U G51A
Outgoing: < 1e-05 s⁻¹

Incoming: Here is the next variant: C58A
Outgoing: 1.13e-05 s⁻¹

Incoming: Here is the next variant: A6C G60A
Outgoing: < 1e-05 s⁻¹

Incoming: Here is the next variant: G44C U65G
Outgoing: < 1e-05 s⁻¹

Value source: the supplement of paper PMC7125110
